Subject Of Test: HLA-A*02:03
Assay Comment: IEDB peptide-MHC binding, purified MHC/competitive/radioactivity; filed as Kd, often an IC50 or EC50 that approximates it; bounds were set here for any values at or beyond the usual limits of such assays
Assay Context: source organism: Dengue virus 3 Martinique/1243/1999
Experimental Endpoint: pKd
Convention used: pKd is expressed as -log10 of the molar concentration.

Some sequences with known pKd results, for comparison:
Input line: Query pKd on HLA-A*02:03 for `FMTATPPGTA`
Output line: 8.66

Input line: Lab request: please report pKd under test system HLA-A*02:03 for `VMLLVLCAV`
Output line: 6.11

Input line: Recorded pKd for `GIMTIDLDPV` with HLA-A*02:03, please?
Output line: 7.60

# ---- query sequence ----
Input line: Item `FLAIPPTAGV` with HLA-A*02:03 - pKd?
Output line: 8.76
